Test system: IGROV1 ovarian
measurementProtocol: NCI tumour cell line growth inhibition, 48 h
# GI50 per entry
measuredMetric: GI50

compound: CCN(CCc1ccc(F)cc1)c1ccc(CO)c(Cl)c1
readoutValue: 0.824 µM
//
compound: CN1CCN(c2ccc3nc(-c4ccc5nc(-c6ccc(C(F)(F)F)cc6)[nH]c5c4)[nH]c3c2)CC1
readoutValue: 6.13 µM
//
compound: CC(=O)c1ccc(NCn2nc(-c3ccccc3O)oc2=S)cc1
readoutValue: > 100 µM
//
compound: Cn1c(-c2c(N)n(Cc3ccc(Cl)cc3)c3nc(C#N)c(C#N)nc23)nc2ccccc21
readoutValue: 1.54 µM
//
compound: CC(C)(C)c1cc2c(OP(c3ccccc3)c3ccccc3)c(c1)Cc1cc(C(C)(C)C)cc(c1OP(c1ccccc1)c1ccccc1)Cc1cc(C(C)(C)C)cc(c1OP(c1ccccc1)c1ccccc1)Cc1cc(C(C)(C)C)cc(c1OP(c1ccccc1)c1ccccc1)C2
readoutValue: > 50 µM
//
compound: CCCN(CCC)c1ccc(C=O)c(OC)c1
readoutValue: 32.8 µM
//
compound: COc1cccc2c1C(=O)c1c(O)c3c(c(O)c1C2=O)C[C@@](O)(C(=O)COC(=O)c1cccnc1)C[C@@H]3OC1CC(N)C(O)C(C)O1 (stereo partly drawn)
readoutValue: 0.121 µM
//
compound: O=c1c2ccccc2c(C=NCCNCCO)c2oc3ccccc3n12
readoutValue: 7.64 µM

----------
Listed below: TGI values for each entry.
Tested on: PC-3 prostate
measurementProtocol: NCI tumour cell line growth inhibition, 48 h
measuredMetric: TGI (µM)

molecule: CCCCCCCCCCCCCC/C(=C/OCC[N+](C)(C)C)OC(C)=O (tested in a mixture with another compound)
unitName: µM
censoringOperator: =
readoutValue: 5.27
--
molecule: NC(N)=N/N=C/c1c(-c2ccc(Cl)c(Cl)c2Cl)nc2sccn12
unitName: µM
censoringOperator: >
readoutValue: 100
--
molecule: C[n+]1ccccc1/C=C/c1ccc2c(c1)OCO2
unitName: µM
censoringOperator: >
readoutValue: 10
--
molecule: COc1ccc(/C=C/c2cc(=O)cc(/C=C/c3ccc(OC)c(O)c3)o2)cc1O
unitName: µM
censoringOperator: =
readoutValue: 12.3
--
molecule: O=C1CC(CC(O)C(O)CO)CC(=O)N1 (stereo unspecified)
unitName: µM
censoringOperator: >
readoutValue: 100
--
molecule: COc1ccc(OC)c2c1C(=O)C(Cl)=C(Cl)C2=O
unitName: µM
censoringOperator: =
readoutValue: 27.6

----------
System: NCI-H23 lung
measurementProtocol: NCI tumour cell line growth inhibition, 48 h; in the data active = GI50 below about 0.43 µM; inactive = the rest
Classes used: active, inactive

compound: Cc1cc(C)c(S(=O)(=O)Oc2ccccc2[N+](=O)[O-])c(C)c1
classAssignment: inactive
--
compound: Cn1c(-c2c(N)n(Cc3ccc(Cl)cc3)c3nc(C#N)c(C#N)nc23)nc2ccccc21
classAssignment: inactive
--
compound: COc1cc2c(cc1OCCN1C(=O)c3cccc4cccc(c34)C1=O)N=C[C@@H]1CCCN1C2=O
classAssignment: inactive
--
compound: C[C@]1(O)CC(=O)[C@]2(O)C3=C(C=C[C@]2(O)C1)C(=O)c1c(O)cccc1C3=O
classAssignment: inactive
--
compound: COc1cccc2c1C(=O)c1c(O)c3c(c(O)c1C2=O)C[C@@](O)(C(=O)COC(=O)c1cccnc1)C[C@@H]3OC1CC(N)C(O)C(C)O1 (some centres undefined)
classAssignment: active
--
compound: CCc1nc2cc(/C=C/C(=O)NO)c(F)cc2c(=O)n1CCc1ccccc1
classAssignment: inactive
--
compound: COc1cc2c(C#N)n3c(c2cc1OC)C(=O)C(c1ccccc1)Oc1ccccc1-3 (centres undefined)
classAssignment: inactive
--
compound: CCCCCCCCOC(=O)c1cc(O)c(O)c(O)c1
classAssignment: inactive
--
compound: CCN(CCc1ccc(F)cc1)c1ccc(CO)c(Cl)c1
classAssignment: inactive

----------
// values below are reported TGI
Tested on: UO-31 renal
measurementProtocol: NCI tumour cell line growth inhibition, 48 h

compound: O=C(O/N=C1/CCC/C1=C\c1ccccc1)c1ccc(Cl)cc1
TGI: > 100 µM
//
compound: C/C=C1/CN2CC[C@@H]3c4ccccc4N4[C@H](C(=O)OC)[C@H]1C[C@H]2[C@]34/C=C/C1=COC[C@@H]2[C@H]1C[C@H]1c3c(c4ccccc4n3C)C[C@@H]2N1C
TGI: 7.98 µM
//
compound: Cc1nnc2sc(-c3ccc(N)cc3)nn12
TGI: > 100 µM
//
compound: NC(=O)c1nnc2cc(F)c(F)cc2c1N
TGI: > 100 µM
//
compound: C=C(C)[C@@H]1CC[C@]2(c3ncc(C)o3)CC[C@]3(C)[C@H](CC[C@@H]4[C@@](C)(CCC#N)[C@H](C(=C)C)CC[C@]43C)[C@@H]12
TGI: 14.8 µM
//
compound: COc1cc([N+](=O)[O-])c(S(=O)(=O)O)cc1-n1nc(-c2ccccc2)n[n+]1-c1cc(S(=O)(=O)[O-])c([N+](=O)[O-])cc1OC
TGI: > 100 µM
//
compound: COC(=O)c1cc(Cl)ccc1NC(=O)C1CCCCC1
TGI: > 100 µM
//
compound: C[C@]1(O)CC(=O)[C@]2(O)C3=C(C=C[C@]2(O)C1)C(=O)c1c(O)cccc1C3=O
TGI: 2.52 µM
//
compound: O=c1[nH]nc2c3n[nH]c(=O)n3c3ccccc3n12
TGI: > 100 µM
//
compound: COc1cc2c(cc1OC)[C@]1(O)C(=O)c3ccc4c(c3O[C@@H]1CO2)C[C@H](C(C)(C)O)O4
TGI: > 100 µM
//
compound: COc1ccc(-n2c(C)nc3ccc(N=Cc4ccccc4)cc3c2=O)cc1
TGI: > 100 µM
//
compound: CCOC(=O)NC(=O)c1cn(-c2ccc(CCOC(=O)CCCCCCCCC(=O)OCCc3ccc(-n4cc(C(=O)NC(=O)OCC)c(=O)[nH]c4=O)cc3)cc2)c(=O)[nH]c1=O
TGI: > 100 µM
//
compound: CCCCCCCCCCCCCCCCCCNc1ccn(C2OC(COP(=O)(O)OCCCCCCCCCCCCCCCC)C(O)C2O)c(=O)n1 (stereo unspecified)
TGI: > 100 µM
//
compound: O=C(CCNC(=O)OCc1ccccc1)OCCCNC(=O)OCc1ccccc1
TGI: > 100 µM
//
compound: Cc1cc(C)c(S(=O)(=O)Oc2ccccc2[N+](=O)[O-])c(C)c1
TGI: > 100 µM
//
compound: CNC1=C(Br)C(=O)C2=C(C1=O)C1C3=C(C(=O)C=CC3=O)C2c2ccccc21 (stereo unspecified)
TGI: 14.4 µM
//
compound: O=C(O)c1cc2c3c(c1)[C@H]1C=CC[C@H]1CN3CC1CC=CC21 (stereo partly specified)
TGI: > 100 µM
//
compound: COc1ccc(-c2ccc(=O)oc2-c2cc(OC)c(OC)c(OC)c2)cc1O
TGI: > 100 µM
//
compound: NC(CCc1nc(-c2ccccc2)cs1)C(=O)O (stereo unspecified)
TGI: > 100 µM
//
compound: NC(N)=NS(=O)(=O)c1ccc(NC(=O)c2ccc(Cl)c3c(Nc4ccc(S(=O)(=O)N=C(N)N)cc4)c4ccccc4nc23)cc1
TGI: > 100 µM
//
compound: Cn1cc(C=C(C#N)C#N)c(=O)n(C)c1=O
TGI: > 100 µM
//
compound: O=C1C=CC(=O)c2c(O)c(Nc3ccc(OC(F)(F)F)cc3)c(Cl)c(O)c21
TGI: 5.58 µM
//
compound: Cc1c(Cl)c(S(N)(=O)=O)cc(S(N)(=O)=O)c1NC(=O)c1ccc(Cl)cc1
TGI: > 100 µM
//
compound: OC(CCN1CCN(CCOC(c2ccc(F)cc2)c2ccc(F)cc2)CC1)c1ccccc1 (stereo unspecified)
TGI: 11.2 µM
//
compound: Cn1c(-c2c(N)n(Cc3ccc(Cl)cc3)c3nc(C#N)c(C#N)nc23)nc2ccccc21
TGI: 13.2 µM
//
compound: O=C(C1=CCC2(CC1)OCCO2)N(Cc1ccccc1)c1ccccc1I
TGI: 33.3 µM
//
compound: Cc1cc(Cl)ccc1OCC(=O)Oc1c(Cl)c(Cl)c(Cl)c(Cl)c1Cl
TGI: 32 µM
//
compound: COC(=O)C1=C(C(=O)OC)C2(/N=C(\Nc3ccccc3)c3ccccc3)N(c3ccc(OC)cc3)CC(c3ccccc3)N2O1 (stereo unspecified)
TGI: > 100 µM
//
compound: CC(C)(C)c1cc2c(OP(c3ccccc3)c3ccccc3)c(c1)Cc1cc(C(C)(C)C)cc(c1OP(c1ccccc1)c1ccccc1)Cc1cc(C(C)(C)C)cc(c1OP(c1ccccc1)c1ccccc1)Cc1cc(C(C)(C)C)cc(c1OP(c1ccccc1)c1ccccc1)C2
TGI: > 50 µM
//
compound: S=C(NNC1=NCCCCN1)Nc1ccccc1
TGI: > 100 µM
//
compound: CC[O+]=c1cccc2ssnc1-2
TGI: > 100 µM
//
compound: COc1cccc2c1C(=O)c1c(O)c3c(c(O)c1C2=O)C[C@@](O)(C(=O)COC(=O)c1cccnc1)C[C@@H]3OC1CC(N)C(O)C(C)O1 (stereo partly specified)
TGI: 2.89 µM
//
compound: COc1ccc(-n2nc(C)c3c(Nc4ccc(NC(=O)Nc5cc(C(F)(F)F)ccc5F)cc4)ncnc32)cc1
TGI: 7.04 µM
//
compound: c1csc(-c2cc(-c3ccsc3)c(-c3cccs3)s2)c1
TGI: > 100 µM
//
compound: COc1cccc2c1[C@H](OC)[C@]13O[C@@]1(C2=O)[C@H](O)[C@H](C)[C@@](O)(C(=O)[C@@H]1O[C@H]1C)[C@@H]3O
TGI: 0.647 µM
//
compound: CCCCC/C=C1\CCC(CN2CCOCC2)C1=O (stereo unspecified)
TGI: 25.9 µM
